# procedure.details: Solubility of palbociclib (free base) in various aqueous buffers, with total degradation by HPLC
# Type: physicochemical
# condition.description: aqueous buffer solution, 25 °C, pH 4.62, aqueous buffer, thermodynamic from solid, Sample J: 5 mL D + 5 mL E, pH 4.62; read-out: Solubility
measurement.name: solubility at 28 h (µg/mL)
State the answer as a number, implicitly in µg/mL.

Input line: Entry CC(=O)c1c(C)c2cnc(Nc3ccc(N4CCNCC4)cn3)nc2n(C2CCCC2)c1=O : reported solubility at 28 h = ?
Output line: 68

====

# procedure.details: Solubility of palbociclib (free base) in various aqueous buffers, with total degradation by HPLC
# Assay type: physicochemical
# condition.description: aqueous buffer solution, 25 °C, pH 2.42, aqueous buffer, thermodynamic from solid, Sample D: 0.2M Succinic acid, pH 2.42; read-out: Solubility
# Experimental: The solubility of palbociclib (free base) was assessed in various aqueous buffer solutions and mixtures thereof. The buffers were prepared at concentrations ranging from 0.01 M to 0.2 M and at pH values ranging from 2.0 to 8.4. Samples were prepared by weighing and transferring approximately 200 mg of palbociclib to 3-4 mL of the buffer. […] The resulting solutions were then analyzed by HPLC to determine the solubility (mg/mL) of palbociclib in the buffer. […]
measurement.name: solubility at 28 h (µg/mL)
State the answer as a number, implicitly in µg/mL.

Input line: Entry CC(=O)c1c(C)c2cnc(Nc3ccc(N4CCNCC4)cn3)nc2n(C2CCCC2)c1=O [palbociclib] : reported solubility at 28 h = ?
Output line: 1100

====

# procedure.details: Solubility of palbociclib (free base) in various aqueous buffers, with total degradation by HPLC
# Type: physicochemical
# condition.description: aqueous buffer solution, 25 °C, pH 5.25, aqueous buffer, thermodynamic from solid, Sample L: 5 mL D + 15 mL E, pH 5.25; read-out: Solubility
measurement.name: solubility at 28 h
Answer with the figure and its unit, nothing else.

Input line: Entry CC(=O)c1c(C)c2cnc(Nc3ccc(N4CCNCC4)cn3)nc2n(C2CCCC2)c1=O [palbociclib] : reported solubility at 28 h = ?
Output line: 91 µg/mL

====

# procedure.details: Solubility of palbociclib (free base) in various aqueous buffers, with total degradation by HPLC
# Format: physicochemical
# condition.description: aqueous buffer solution, 25 °C, pH 3.45, aqueous buffer, thermodynamic from solid, Sample H: 9 mL D + 1 mL E, pH 3.45; read-out: Solubility
measurement.name: solubility at 28 h (µg/mL)
State the answer as a number, implicitly in µg/mL.

Input line: Entry CC(=O)c1c(C)c2cnc(Nc3ccc(N4CCNCC4)cn3)nc2n(C2CCCC2)c1=O [palbociclib] : reported solubility at 28 h = ?
Output line: 340

====

# procedure.details: Solubility of palbociclib (free base) in various aqueous buffers, with total degradation by HPLC
# Assay type: physicochemical
# condition.description: aqueous buffer solution, 25 °C, pH 3.15, aqueous buffer, thermodynamic from solid, Sample G: 9.5 mL D + 0.5 mL E (succinic acid/sodium succinate), pH 3.15; read-out: Solubility
# Description: The solubility of palbociclib (free base) was assessed in various aqueous buffer solutions and mixtures thereof. The buffers were prepared at concentrations ranging from 0.01 M to 0.2 M and at pH values ranging from 2.0 to 8.4. Samples were prepared by weighing and transferring approximately 200 mg of palbociclib to 3-4 mL of the buffer. […] The resulting solutions were then analyzed by HPLC to determine the solubility (mg/mL) of palbociclib in the buffer. […]
measurement.name: solubility at 28 h (µg/mL)
State the answer as a number, implicitly in µg/mL.

Input line: Entry CC(=O)c1c(C)c2cnc(Nc3ccc(N4CCNCC4)cn3)nc2n(C2CCCC2)c1=O [palbociclib] : reported solubility at 28 h = ?
Output line: 1700
